Biological target: T1, Anti-CD28 Fab (SEQ ID NOs: 696, 697)
T1 construct: Biotinylated and captured on neutravidin coated plates in the phage ELISA
T1 sequence (VH, as listed by the source, chain 1 of 2): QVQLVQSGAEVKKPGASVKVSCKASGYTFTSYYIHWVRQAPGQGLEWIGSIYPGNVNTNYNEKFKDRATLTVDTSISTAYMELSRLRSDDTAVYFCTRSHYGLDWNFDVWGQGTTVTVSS
T1 sequence (VL, as listed by the source, chain 2 of 2): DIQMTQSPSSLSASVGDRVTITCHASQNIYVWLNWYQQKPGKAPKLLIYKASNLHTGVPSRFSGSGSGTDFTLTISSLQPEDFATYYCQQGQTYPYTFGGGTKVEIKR
Test: phage binding ELISA; biotinylated anti-CD28 Fab on neutravidin plate, anti-M13 HRP detection
Where no end group is shown, it is not given here.
Recorded measurements of Anti-CD28 Fab (SEQ ID NOs: 696, 697) signal, one per entry

{"BINDER": "YCAGHAWQYINKCL (cysteine pairing not given here; also: displayed as fusion to phage pIII, linker and pIII sequence not given here, Clonal phage supernatant; also called Peptide-87; not shown: fused to the pIII filament protein of the bacteriophage) [Phage-466]", "RESULT": 0.64}
{"BINDER": "DCPWLSGFSRPLLC (Clonal phage supernatant; also called Peptide-93; not shown: fused to the pIII filament protein of the bacteriophage) [Phage-472]", "RESULT": 1.27}
{"BINDER": "WCWDYREWVPMTCP (cysteine pairing not given here; also: displayed as fusion to phage pIII, linker and pIII sequence not given here, Clonal phage supernatant; also called Peptide-82; not shown: fused to the pIII filament protein of the bacteriophage) [Phage-461]", "RESULT": 2.3}
{"BINDER": "GCQYPWAFDAMSCP (cysteine pairing not given here; also: displayed as fusion to phage pIII, linker and pIII sequence not given here, Clonal phage supernatant; also called Peptide-80; not shown: fused to the pIII filament protein of the bacteriophage) [Phage-459]", "RESULT": 2.38}
{"BINDER": "DCWWMFESYPGRCI (cysteine pairing not given here; also: displayed as fusion to phage pIII, linker and pIII sequence not given here, Clonal phage supernatant; also called Peptide-86; not shown: fused to the pIII filament protein of the bacteriophage) [Phage-465]", "RESULT": 1.65}

Next:
Data request, read-out Anti-CD28 Fab (SEQ ID NOs: 696, 697) signal, for ECHWSMWAVGHACF (cysteine pairing not given here; also: displayed as fusion to phage pIII, linker and pIII sequence not given here, Clonal phage supernatant; also called Peptide-83; not shown: fused to the pIII filament protein of the bacteriophage) [Phage-462]
1.77
